B1: glmS ribozyme (parent)
chain: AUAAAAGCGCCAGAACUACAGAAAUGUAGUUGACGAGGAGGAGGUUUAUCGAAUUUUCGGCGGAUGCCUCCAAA

Variants of: B1
assay explanation: self-cleavage kobs at 40 uM GlcN6P; higher = faster cleavage; RNA array
run conditions: with glucosamine-6-phosphate
Variants at the floor of the assay were thinned out.

sequence variant	self-cleavage kobs at 40 uM GlcN6P
A12G G38A G66U	< 1e-05 s⁻¹
A48U C61A C67U	< 1e-05 s⁻¹
G35A G41A A48G C61U	< 1e-05 s⁻¹
A15U G59A	< 1e-05 s⁻¹
C10A G59C	< 1e-05 s⁻¹
G9U A42U	< 1e-05 s⁻¹
C34A G37C A48C	< 1e-05 s⁻¹
A39U G41C	< 1e-05 s⁻¹
A6G C16G C67G	< 1e-05 s⁻¹
G38A G41C G43U	< 1e-05 s⁻¹
U45G C50A	< 1e-05 s⁻¹
G51A G63U	< 1e-05 s⁻¹
A6U G13C A15U	< 1e-05 s⁻¹
A24C A48C G62U G63U C70G	< 1e-05 s⁻¹
A12U C50G G59U U69C	0.000143 s⁻¹
A42U C67A	7.75e-05 s⁻¹
G40C C50G	< 1e-05 s⁻¹
C8U U57G	< 1e-05 s⁻¹
A12C U54C	0.00107 s⁻¹
A15G U46G A48U G59A	< 1e-05 s⁻¹
G40U U49C	< 1e-05 s⁻¹
U55G C68U	0.000294 s⁻¹
